Molecular target: HLA-A*02:02
Assay: IEDB peptide-MHC binding, cellular MHC/competitive/fluorescence; bounds were set here for any values at or beyond the usual limits of such assays
Conditions: source organism: Mammarenavirus lassaense
Parameter: pIC50
// returns pIC50 (minus log10 of molar concentration), number only

Which pIC50 value belongs to `MSIQLINKAV` ?
4.94

====

Below, each entry is listed with its recorded pIC50.
Target: HLA-A*02:06
Assay: IEDB peptide-MHC binding, cellular MHC/competitive/fluorescence; bounds were set here for any values at or beyond the usual limits of such assays
Conditions: source organism: Vaccinia virus WR
Please treat pIC50 as minus the base-10 logarithm of the molar concentration.

As a guide, the following entries are already answered.
Data request, read-out pIC50, for `QQNNSFIIST`
5.24

Here is the next sequence: `PANINDKQIM`
4.96

Input `RLYNSLKRFT`
5.14

New cases:
Any idea what its pIC50 is? The sequence is `DMLLNVQTL`
4.87

Note, next up: `AMHDKKIDI`
4.38

Same read-out for `ELEKCTSEI` ?
4.24

Would you kindly repeat that for `LLNETAKVI` ?
4.81

Entry `VLTILYYGA` please
5.20

Input `NIREGTHVLL`
4.46

====

Molecular target: HLA-A*01:01
Test: IEDB peptide-MHC binding, cellular MHC/competitive/fluorescence; bounds were set here for any values at or beyond the usual limits of such assays
Conditions: source organism: Vaccinia virus WR
Hi! Just check whether IC50 is below 30 µM. Below gives MET, equal or above gives NOT MET.

Recorded results for 5 sequences are shown here.
Field: below-cutoff. Rule: recorded IC50 strictly less than 30 µM. Subject: `AQQFCQYLI`
NOT MET

And then `QQFANVISKI` , what is it?
NOT MET

Would you kindly repeat that for `VQSVLRDISI` ?
MET

Also `NQGNILMDSI` , if possible.
MET

Query `FQESFYEDI` next
NOT MET

Continuing:
Given the entry `YQNEVTPEYI` , would its reported IC50 be below 30 µM?
NOT MET

Then this sequence: `SQAKKPEVRI`
NOT MET

====

Molecular target: HLA-A*02:02
Assay: IEDB peptide-MHC binding, purified MHC/competitive/radioactivity; bounds were set here for any values at or beyond the usual limits of such assays
Conditions: source organism: Vaccinia virus WR
pIC50: −log10 of the molar value.
Use pIC50 to assign classes; range list: A: < 6; B: ≥ 6 and < 7; C: ≥ 7

State the class of the sequence shown: `ILISLINSLV`
C

Again, but for `TLLGLILFVL`
B

Could you do the same for `KTVKNVDII` , please?
B

Moving on to `SLTTIGTIA`
C

Also `FQESFYEDIA` , if possible.
A

====

Parameter: log10 of IC50. Scope: all listed entries.
Target: HLA-A*02:03
Test: IEDB peptide-MHC binding, purified MHC/competitive/radioactivity; bounds were set here for any values at or beyond the usual limits of such assays
Conditions: source organism: Vaccinia virus WR
All values: base-10 log of IC50 in nM.

Dear colleague, I am looking for the recorded log10 of IC50 of the following sequence: `TIAHINTLI`
1.30

Continuing:
Data request, read-out log10 of IC50, for `HMYRGGNGNT`
2.63

Further, for `ALINLVQYRI` ?
1.91

Subsequent entry: `DTGKKELALT`
2.42

Further, for `DLLLPSTDV` ?
3.59

Check `FISYNRHNDT` too.
3.69

Check `FISIYSRPKI` too.
2.01

Same thing, different sequence: `LTQVKELGIA`
2.18

Can you check `RALKAYFTA` next?
2.31

Please do the same for `KILSDENYLL` as well.
3.58

Same thing, different sequence: `SIKMIYDLNA`
2.41
